Origin of measurements: patent US12390437B2

System: IL-1β cytokine output from THP-1s
Assay: THP-1 AlphaLISA IL-1β cytokine assay
Type: cell-based, human
Conditions: read-out: IL-1β (IC50)
Quantity: pIC50
Numbers only, as −log10 of the molar value.

Exercise: Look up pIC50 for this molecule: `C=C(CC(=O)O[C@H]1[C@@H]2CC[C@H]1CN(S(C)(=O)=O)C2)C(=O)O[C@H]1[C@@H]2CC[C@H]1CN(S(C)(=O)=O)C2`
Solution: 4.55

###

Hi there, I'd appreciate the recorded concentration at 0.133 h for every entry that follows.
Assay: Mouse pharmacokinetic study, intravenous dosing
Format: in vivo
Settings: male, C57BL/6, mouse, iv; plasma, 10 mg/kg i.v., time 0.133 h; read-out: Parent compound concentration following intravenous administration
Experimental: Pharmacokinetic studies were carried out in 6-8-week-old male C57BL/6 mice having free access to food and water. […] For both intravenous and oral routes, the mice were restrained manually at the designated time points, with ca. 110 μL of blood being taken into K2EDTA tubes via the facial vein. Blood samples were put on ice and centrifuged to obtain plasma samples from which the concentration at each time point was measured by LC-MS/MS.
One number for each entry, in ng/mL.

INSERT INTO assay_data (mol, quantity, units_symbol, observed_measurement) VALUES
  ('C=C(CC(=O)OC(CCCC)CCCC)C(=O)OCC(=O)O', 'concentration at 0.133 h', 'ng/mL', 11700);

Now for a further molecule.
Exercise: Find the recorded concentration at 0.133 h belonging to `C=C(CC(=O)OC12CC3CC(CC(C3)C1)C2)C(=O)OCC(=O)O` and report it.
Solution: 11300
